KD ratio (mutant/wt) by entry:
# target-entity: T1, DR4-IgG (human)
# T1 construct: Mature DR4 ECD (amino acids 1-218); Made in human 293 cells; also called DR4 receptor immunoadhesin
# assay-remarks: BIAcore SPR, receptor-IgG immobilised; ratio to wild-type Apo2L/TRAIL(114-281)

Use the examples below as a reference point.
1. Apo2L/TRAIL(114-281) mutant DR5-11 (ligand) VRERGPQRVAAHITGTRGRSNTLSSPNSKNEKALGRKINSWESSRSGHSFLSNLHLRNGELVIHEKGFYYIYSQTAFRFKEEIKENTKNDKQMVQYIYKYTSYPDPILLMKSARNSCWSKDAEYGLYSIYQGGIFELKENDRIFVSVTNEGLVDMSHEASFFGAFLVG :: 5 ratio (mutant/wt)
2. Apo2L/TRAIL(114-281) mutant DR5-5 (ligand) VRERGPQRVAAHITGTRGRSNTLSSPNSKNEKALGRKINSWESSRSGHSFLSNLHLRNGELVIHEKGFYYIYSQTSFRFTEEIKENTKNDKQMVQYIYKYTSYPDPILLMKSARNSCWSKDAEYGLYSIYQGGIFELKENDRIFVSVTNEGLLDMNHEASFFGAFLVG :: 12.4 ratio (mutant/wt)
3. Apo2L/TRAIL(114-281) mutant DR5-23 (ligand, Untagged, from pAPOK5.0, purified from E. coli) VRERGPQRVAAHITGTRGRSNTLSSPNSKNEKALGRKINSWESSRSGHSFLSNLHLRNGELVIHEKGFYYIYSQTAFKFREEIKENTKNDKQMVQYIYKYTSYPDPILLMKSARNSCWSKDAEYGLYSIYQGGIFELKENDRIFVSVTNESLLDMEHEASFFGAFLVG :: 105 ratio (mutant/wt)

Kindly review the next binder as well.
Exercise: Which measured KD ratio (mutant/wt) value corresponds to Apo2L/TRAIL(114-281) mutant DR5-4 (ligand) VRERGPQRVAAHITGTRGRSNTLSSPNSKNEKALGRKINSWESSRSGHSFLSNLHLRNGELVIHEKGFYYIYSQTAFRFREEIKENTKNDKQMVQYIYKYTSYPDPILLMKSARNSCWSKDAEYGLYSIYQGGIFELKENDRIFVSVTNEQLLDMNHEASFFGAFLVG ?
Key: 3.1 ratio (mutant/wt)
